The reported numbers originate from paper PMC11390321.

- Format: in vivo, BALB/c mice
- EXPERIMENTAL_SETUP: BALB/c, mouse, skeletal muscle, iv, 20 mg/kg
RECORDED_ENDPOINT: Kp

{"columns": ["STRUCTURE_SMILES", "ASSAY_VALUE"],
 "data": [
  ["CNCc1ccc(-c2cc(-c3nc(-c4ccc(S(=O)(=O)C(C)C)cc4)cnc3N)on2)cc1", 2.77]
]}

====

- Assay type: in vivo, BALB/c mice
- EXPERIMENTAL_SETUP: BALB/c, mouse, heart, iv, 20 mg/kg

{"columns": ["MOLECULE", "UNIT_OF_MEASURE", "Cmax"],
 "data": [
  ["CNCc1ccc(-c2cc(-c3nc(-c4ccc(S(=O)(=O)C(C)C)cc4)cnc3N)on2)cc1 [berzosertib]", "ng/mL", 31600]
]}
